- Tested on: SW1271 complex spheroids with HUVEC/MSC, growth, % test/control
- ASSAY_NOTES: Anticancer human tumor SW1271 cell line growth inhibition [AhR];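 note: spheroids exposed to agents for 7 days before readout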
- TEST_CONDITIONS: second compound 1 µM; first compound 0.316 µM; stronger effect = lower value
Lab note - cut at 90% for viability, T/C: Criterion met if strictly below, Criterion not met if not.

>  <MOLECULE>
O=C(c1cc(Cc2n[nH]c(=O)c3ccccc23)ccc1F)N1CCN(C(=O)C2CC2)CC1 + Cc1ccccc1N=Nc1ccc(NC(=O)c2ccnn2C)c(C)c1

>  <CATEGORY>
Criterion not met

$$$$
>  <MOLECULE>
CC1COCCN1c1cc(-c2ccnn2C)c2ccnc(-c3ccn[nH]3)c2n1 (configuration not stated) + Cc1cncc(-c2nc(NCCc3c[nH]c4ccccc34)c3ncn(C(C)C)c3n2)c1

>  <CATEGORY>
Criterion met

$$$$
>  <MOLECULE>
O=C(C=Cc1cccc(S(=O)(=O)Nc2ccccc2)c1)NO + Cc1cncc(-c2nc(NCCc3c[nH]c4ccccc34)c3ncn(C(C)C)c3n2)c1

>  <CATEGORY>
Criterion met

$$$$
>  <MOLECULE>
COc1ccc([C@@H](O)c2cc(-c3ncnc4cc(N5CCOCC5)ccc34)c(F)cc2Cl)nn1 + Cc1cncc(-c2nc(NCCc3c[nH]c4ccccc34)c3ncn(C(C)C)c3n2)c1

>  <CATEGORY>
Criterion not met

$$$$
>  <MOLECULE>
COc1ccc([C@@H](O)c2cc(-c3ncnc4cc(N5CCOCC5)ccc34)c(F)cc2Cl)nn1 + Cc1ccccc1N=Nc1ccc(NC(=O)c2ccnn2C)c(C)c1

>  <CATEGORY>
Criterion met

$$$$
>  <MOLECULE>
O=C(c1cc(Cc2n[nH]c(=O)c3ccccc23)ccc1F)N1CCN(C(=O)C2CC2)CC1 + Cc1cncc(-c2nc(NCCc3c[nH]c4ccccc34)c3ncn(C(C)C)c3n2)c1

>  <CATEGORY>
Criterion met

$$$$
>  <MOLECULE>
CC1(C)CCC(CN2CCN(c3ccc(C(=O)NS(=O)(=O)c4ccc(NCC5CCOCC5)c([N+](=O)[O-])c4)c(Oc4cnc5[nH]ccc5c4)c3)CC2)=C(c2ccc(Cl)cc2)C1 + CC(CO)NC(=O)c1cc(-c2ccc(Cl)cc2)nn(-c2cnn(C)c2)c1=O

>  <CATEGORY>
Criterion met

$$$$
>  <MOLECULE>
CC1COCCN1c1cc(C2(S(C)(=N)=O)CC2)nc(-c2ccnc3[nH]ccc23)n1 (configuration not stated) + CC(CO)NC(=O)c1cc(-c2ccc(Cl)cc2)nn(-c2cnn(C)c2)c1=O

>  <CATEGORY>
Criterion not met

$$$$
>  <MOLECULE>
Nc1ccn(C2OC(CO)C(O)C2(F)F)c(=O)n1 (configuration not stated) + CC(CO)NC(=O)c1cc(-c2ccc(Cl)cc2)nn(-c2cnn(C)c2)c1=O

>  <CATEGORY>
Criterion met

$$$$
>  <MOLECULE>
O=C(C=Cc1cccc(S(=O)(=O)Nc2ccccc2)c1)NO + CC(CO)NC(=O)c1cc(-c2ccc(Cl)cc2)nn(-c2cnn(C)c2)c1=O

>  <CATEGORY>
Criterion met

$$$$
>  <MOLECULE>
COc1cccc2c1C(=O)c1c(O)c3c(c(O)c1C2=O)CC(O)(C(=O)CO)CC3OC1CC(N)C(O)C(C)O1 (configuration not stated) + Cc1ccccc1N=Nc1ccc(NC(=O)c2ccnn2C)c(C)c1

>  <CATEGORY>
Criterion met

$$$$
>  <MOLECULE>
CC(C)c1c(-c2ccccc2)nc2c(C#N)c[nH]n2c1=O + CC(CO)NC(=O)c1cc(-c2ccc(Cl)cc2)nn(-c2cnn(C)c2)c1=O

>  <CATEGORY>
Criterion met

$$$$
>  <MOLECULE>
CC1COCCN1c1cc(-c2ccnn2C)c2ccnc(-c3ccn[nH]3)c2n1 (configuration not stated) + Cc1ccccc1N=Nc1ccc(NC(=O)c2ccnn2C)c(C)c1

>  <CATEGORY>
Criterion met

$$$$
>  <MOLECULE>
COc1cc(C2c3cc4c(cc3C(OC3OC5COC(C)OC5C(O)C3O)C3COC(=O)C23)OCO4)cc(OC)c1O (configuration not stated) + Cc1cncc(-c2nc(NCCc3c[nH]c4ccccc34)c3ncn(C(C)C)c3n2)c1

>  <CATEGORY>
Criterion met

$$$$
